Test system: CP265
Assay: qHTS profiling for inhibitors of Plasmodium falciparum proliferation (AID 504749); note: nearly all actives have a fitted effect of over 60% in size
Details: P. falciparum in erythrocytes, SYBR Green DNA, 72 h; series mostly up to 28.7 µM
Inconclusive results are not listed. Activity calls are given as the source filed them. Calls come from the whole dose curve; as a rule, active = well fitted inhibition curve with a large enough effect; inconclusive = small, poorly fitted or top-dose-only effect; inactive = flat fitted curve, though single readings scatter.
Use one of these outcomes when replying: t for active, f for inactive

Given CC[C@H](NC(C)C)[C@H](O)c1ccc(O)c2[nH]c(=O)ccc12 , state the outcome it received in this test.
f

And the next one, COc1c(N2CCNC(C)C2)c(F)cc2c(=O)c(C(=O)O)cn(C3CC3)c12 (centres undefined) ?
f

Consider next the compound CCn1cc(C(=O)O)c(=O)c2cc(F)c(N3CCNCC3)nc21 in the same way.
f

Repeat with CC(C)OC(=O)C(C(=O)OC(C)C)=C1SC=CS1
f

Let us now turn to COc1cc(NCc2ccc3nc(N)nc(N)c3c2C)cc(OC)c1OC
t

Now consider C[C@]12C=CC(=O)C=C1CC[C@@H]1[C@@H]2C(=O)C[C@@]2(C)[C@H]1CC[C@]2(O)C(=O)CO and answer again.
f

Proceed to Cc1noc(NS(=O)(=O)c2ccc(N)cc2)c1C
f

What do you have for Cc1nnc(NS(=O)(=O)c2ccc(N)cc2)s1 ?
f

// next record COc1cnc(NS(=O)(=O)c2ccc(N)cc2)nc1
f

How about CCOCC(O)COc1ccc(NC(=O)CC[S+](C)C)cc1 (centres undefined) ?
f

What do we get for CN(C)CCc1c[nH]c2ccc(CS(=O)(=O)N3CCCC3)cc12 ?
f

Another: Nc1[nH]c(=O)ncc1F
f

Try this compound next: Nc1nc(N)c2nc(CNc3ccc(C(=O)NC(CCC(=O)O)C(=O)O)cc3)cnc2n1 (centres undefined)
f

// repeat for CC1=NN(c2ccccc2)C(=O)C1 and report
f

Ok, now CN1CCN(c2c(F)cc3c(=O)c(C(=O)O)cn4c3c2OCN4C)CC1
f

Proceed to Nc1nc(N)nc(-c2cc(Cl)ccc2Cl)n1
f

Another compound to check: Nc1ccc(S(=O)(=O)Nc2ccccn2)cc1
f

Do the same for CCC(C)(C)c1ccc(CC(C)CN2C[C@@H](C)O[C@@H](C)C2)cc1 (some centres undefined) please
f

Please give the result for COc1cccc(N(C)C(=S)Oc2ccc3c(c2)CCCC3)n1 too.
f

// query: S=P(N1CC1)(N1CC1)N1CC1
f

Please answer likewise for CCCc1cc(C(N)=S)ccn1
f

Can you handle CCOC(=O)[C@H](CCc1ccccc1)N[C@H]1CS[C@H](c2cccs2)CN(CC(=O)O)C1=O next?
f

Same again, this time with CC(=O)Oc1ccccc1C(=O)Nc1ncc([N+](=O)[O-])s1
f

Would you kindly repeat that for COc1cc(NS(=O)(=O)c2ccc(N)cc2)nc(OC)n1 ?
f
